Measured values drawn from patent US20220017636A1 for this set.

The entries below are paired with their reported Signal/background.
- study.target: T1, MAGEB2 peptide … (SEQ ID NO: 1) complexed with HLA-A*02:01 on the cell surface (human)
- T1 construct: whole, on cells; also called pMAGE-HLA; MAGEB2 pMHC
- experimental.protocol: flow cytometry, peptide-loaded T2 cells;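 further: binding of single-chain Fv antibody constructs, raised in XenoMouse, to peptide-pulsed T2 cells measured by flow cytometry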
Keep the answer to the number alone.

>>> experimental_value("18182-E5 (scFv, scFv in bacterial lysate, detected with anti-Flag M2) scFv: EVQLLESGGGLVQPGGSLRLSCAASGFTFSSYAMSWVRQAPGKGLEWVSTISGSGGGTYYADSVKGRFTISRDNSKNTLYLQMNSLRAEDTAVYYCATGKGVHLGFDYWGQGTLVTVSSGGGGSGGGGSGGGGSELVLTQPPSVSVAPGQTARITCGGNNIGSKSVHWHQQKPGQAPVLVVYDDNDRPSGIPERFSGSNSGNTATLTISRVEAGDEADYYCQVWDYSSDHVVFGGGTKLTVL")
205

As a next step, examine the binder that follows.
Prompt: Which value of Signal/background has been reported for 18182-E6 (scFv, scFv in bacterial lysate, detected with anti-Flag M2) scFv: EVQLLESGGGLVQPGGSLRLSCAASGFTFSSYAMSWVRQAPGKGLEWVSAISGSGGGTYYADSVKGRFTISRDNSKNTLYLQMNSLRAEDTAVYYCATGKGVHLNFDYWGQGTLVTVSSGGGGSGGGGSGGGGSELVLTQPSSVSVAPGQTARITCGGNNIGSKSVHWYQQKPGQAPVLVVYDDNDRPSGIPERFSGSNFGNTATLIISRVAAGDEADYYCQVWDSSSDHVVFGGGTKLTVL in the records?
Response: 431
